# Test system: Jurkat (acute lymphoblastic leukemia) cells
# TEST_SUMMARY: MTT cell growth inhibition, leukemia cells
# Type: cell-based, human
# CONDITION_LABEL: Homo sapiens; Jurkat, 72 h, MTT; read-out: IC50
Kindly state IC50 for each of the entries shown.
Numbers only, in µg/mL.

Please review the following examples before continuing.
| MOLECULE_SMILES | ASSAY_SYSTEM | IC50 (µg/mL) |
| --- | --- | --- |
| COc1ccc2cc1Oc1ccc(cc1)C[C@H]1c3cc(c(OC)cc3CCN1C)Oc1c(OS(=O)(=O)c3ccccc3)c(OC)cc3c1[C@H](C2)N(C)CC3 | Jurkat (acute lymphoblastic leukemia) cells | 0.45 |
| COc1ccc2cc1Oc1ccc(cc1)C[C@H]1c3cc(c(OC)cc3CCN1C)Oc1c(OC3CCCC3)c(OC)cc3c1[C@H](C2)N(C)CC3 | Jurkat (acute lymphoblastic leukemia) cells | 0.93 |

# compound "COc1ccc2cc1Oc1ccc(cc1)C[C@H]1c3cc(c(OC)cc3CCN1C)Oc1c(OCc3cccc(F)c3F)c(OC)cc3c1[C@H](C2)N(C)CC3" ; its IC50 = 2.23
